Each record here notes measured pIC50.
# Tested On: Tyrosine-protein kinase BTK (Homo sapiens, UniProt Q06187)
# Sequence (Q06187 whole entry): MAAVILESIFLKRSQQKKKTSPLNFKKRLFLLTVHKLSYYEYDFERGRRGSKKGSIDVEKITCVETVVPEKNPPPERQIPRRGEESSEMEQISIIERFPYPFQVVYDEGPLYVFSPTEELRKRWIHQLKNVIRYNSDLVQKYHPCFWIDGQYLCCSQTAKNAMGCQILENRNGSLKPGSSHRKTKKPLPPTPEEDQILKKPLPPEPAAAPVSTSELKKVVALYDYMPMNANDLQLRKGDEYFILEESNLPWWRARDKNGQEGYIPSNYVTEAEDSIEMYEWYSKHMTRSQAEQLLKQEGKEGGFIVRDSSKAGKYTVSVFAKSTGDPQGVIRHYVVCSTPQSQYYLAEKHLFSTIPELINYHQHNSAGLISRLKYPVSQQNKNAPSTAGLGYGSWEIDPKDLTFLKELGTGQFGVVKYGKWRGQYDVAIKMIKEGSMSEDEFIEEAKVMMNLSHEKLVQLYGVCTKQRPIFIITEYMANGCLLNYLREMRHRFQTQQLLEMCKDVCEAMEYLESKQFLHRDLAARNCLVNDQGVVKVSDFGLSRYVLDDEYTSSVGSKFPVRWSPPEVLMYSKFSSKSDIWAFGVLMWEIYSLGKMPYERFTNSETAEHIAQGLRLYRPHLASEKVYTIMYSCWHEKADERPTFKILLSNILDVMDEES
# Experiment Description: Inhibition of human recombinant full length N-terminal His tagged BTK expressed in baculovirus infected Sf9 cells using poly (Glu,Tyr) 4:1 as substrate measured after 60 mins in presence of ATP by ADP-Glo kinase assay
pIC50: −log10 of the molar value.
Property Name: pIC50

[[record]]
smiles_notation = "CN1CCN(c2ccc(Nc3nc(-c4cccc(NC(=O)c5ccc(Cl)cc5)c4)sc3C(=O)O)cc2)CC1"
value_reported = 6.87

[[record]]
smiles_notation = "CN1CCN(c2ccc(Nc3nc(-c4cccc(NC(=O)c5cccc(F)c5)c4)sc3C(=O)O)cc2)CC1"
value_reported = 4.56

[[record]]
smiles_notation = "CC(C)(C)c1ccc(C(=O)Nc2cccc(-c3nc(Nc4ccc(N5CCOCC5)cc4)c(C(N)=O)s3)c2)cc1"
value_reported = 5.65

[[record]]
smiles_notation = "CCOC(=O)c1sc(-c2cccc(NC(=O)c3ccco3)c2)nc1Nc1ccc(N2CCN(C)CC2)cc1"
value_reported = 6.79

[[record]]
smiles_notation = "O=C(Nc1cccc(-c2nc(Nc3ccc(N4CCOCC4)cc3)c(C(=O)O)s2)c1)c1ccc(C(F)(F)F)cc1"
value_reported = 4.42

[[record]]
smiles_notation = "NC(=O)c1sc(-c2cccc(NC(=O)c3ccc(F)cc3)c2)nc1Nc1ccc(N2CCOCC2)cc1"
value_reported = 6.59

[[record]]
smiles_notation = "CCOC(=O)c1sc(-c2cccc(NC(=O)c3ccc(C#N)cc3)c2)nc1Nc1ccc(N2CCN(C)CC2)cc1"
value_reported = 5.29

[[record]]
smiles_notation = "CN1CCN(c2ccc(Nc3nc(-c4cccc(NC(=O)c5ccccc5F)c4)sc3C(N)=O)cc2)CC1"
value_reported = 5.57

